test: chemical genetic growth profiling, strain panel (AID 1159580);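 note: tested at 20 µM; growth read once vehicle control cultures reached saturation at 30 °C; 1 = growth at the plate median or of vehicle wells; lower values mean less growth of the strain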; settings: S. cerevisiae deletion strains, growth OD, locus YGR252W, strain gcn5, active compounds read low
About 2,000 (36%) of roughly 5,500 compounds were called active. Not shown: some 18% with an inconclusive outcome. This is one part of the list.
Please use the following normalized growth ranges when assigning a class: bin 1: < 0.9; bin 2: ≥ 0.9 and < 1; bin 3: ≥ 1

1. OC[C@@H]1CCCN2CCCC[C@H]12 ... bin 2
2. O=C(O)CCC(=O)C(=O)O ... bin 2

# input for lookup
Request: Bin this entry: `Nc1ccc(S(=O)(=O)Nc2ccc(Cl)nn2)cc1`
Response: bin 3

###

test: chemical genetic growth profiling, strain panel (AID 1159580); details: S. cerevisiae deletion strains, growth OD, locus YGL248W, strain PDE1, active compounds read low
Screen size: about 5,500 compounds; about 2,000 (36%) were called active. Another 18% or so got no clear call; they are omitted. The list shows a part of the results.
OBSERVATION TYPE: normalized growth
When you answer, write just the number.

# annotated cases, reported normalized growth shown
1) Cc1occc(=O)c1O ... 1.01
2) CC1(C)C(O)CC(O)C2(C)C1CC(=O)C1(C)C2CCC2(C)C(C(=O)O)OC(=O)C3OC321 (stereo unspecified) ... 1.01
3) C1CCN2C[C@@H]3C[C@H](CN4CCCC[C@@H]34)[C@H]2C1 ... 1
4) CCC(Cc1c(I)cc(I)c(N)c1I)C(=O)O (stereo unspecified) ... 1
5) Nc1ccc(S(=O)(=O)Nc2ccccn2)cc1 ... 1.02
6) CC(=O)O[C@@H]1CC2C(C)(C)C=CC(=O)[C@]2(C)C2CC[C@@]3(C)[C@H](c4ccoc4)OC(=O)C4OC43[C@@]21C (stereo partly specified) ... 1.02
7) CC(=O)OC1CC(OC(C)=O)C2(C)C(CC(OC(C)=O)C3(C)C2CCC2(C)C(c4ccoc4)CC4OC423)C1(C)C (stereo unspecified) ... 1.01
8) c1ccc2c(c1)cc1ccc3cccc4ccc2c1c34 ... 1.02
9) C1CNCCN1 ... 1
10) OC[C@@H](O)[C@@H](O[C@@H]1O[C@H](CO)[C@@H](O)[C@H](O)[C@H]1O)[C@H](O)[C@@H](O)CO ... 1.01

Request: normalized growth lookup needed for C1CCN2CC3CC(CN4CCCCC34)C2C1 (stereo unspecified) , thanks.
Response: 0.998

Request: Quick one: `O=[N+]([O-])c1cc([As](=O)(O)O)ccc1O`
Response: 0.992

Request: Same for COC(=O)[C@]1(C)CC[C@]2(C)CC[C@]3(C)C4=CCc5c(cc(O)c(O)c5C)[C@]4(C)CC[C@@]3(C)C2C1 (stereo partly specified)
Response: 0.985

Request: Another compound: `COc1c2c(cc3c1OCO3)CCN(C)C2`
Response: 1.01

Request: Ok, now CC(=O)c1c(O)c(C)c(O)c2c1OC1=CC(=O)C(C(C)=O)C(=O)C12C (stereo unspecified)
Response: 1.02

Request: Try this compound next: C=CCC1(C(C)CCC)C(=O)N=C(S)NC1=O (stereo unspecified)
Response: 1

Request: Entry to check: `OC[C@@H]1CCCN2CCCC[C@H]12`
Response: 0.993

Request: Now consider `Cc1ccc2cc3c(ccc4ccccc43)c3c2c1CC3` .
Response: 0.981

Request: Continue with CCCC(C)C1(CC)C(=O)N=C(S)NC1=O (stereo unspecified)
Response: 1.01

Request: Another compound to look at: `CC(=O)Nc1cc([As](=O)(O)O)ccc1O`
Response: 1.01

Request: `N[C@@H](Cc1ccc(O)c(O)c1)C(=O)O` ?
Response: 0.989

###

experiment: chemical genetic growth profiling, strain panel (AID 1159580); settings: S. cerevisiae deletion strains, growth OD, locus YOR265W, strain rbl2, active compounds read low
In all, about 5,500 compounds went through this assay and about 2,000 (36%) were called active. Another 18% or so got no clear call; they are omitted. The list shows a part of the results.
OBSERVATION TYPE: normalized growth

Request: What value of normalized growth has been reported for the following compound? `Nc1ncnc2c1ncn2[C@@H]1O[C@H](CO)[C@@H](O)[C@H]1O`
Response: 0.983 (inactive)

###

assay: chemical genetic growth profiling, strain panel (AID 1159580);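 note: tested at 20 µM; growth read once vehicle control cultures reached saturation at 30 °C; 1 = growth at the plate median or of vehicle wells; lower values mean less growth of the strain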; details: S. cerevisiae deletion strains, growth OD, locus YDL185W, strain tfp1
The whole screen tested about 5,500 compounds, of which about 2,000 (36%) were called active. About 18% were inconclusive and are not listed. No stated cut-off is given here; in the data, active means normalized growth mostly below about 0.91 (no sharp cut-off); inconclusive means no clear call, values can overlap the other calls; inactive means mostly above about 0.92. The list shows a part of the results.
Please state which outcome applies, choosing from active, inactive

Record excerpt, results attached:
1) Nc1nc2c(ncn2C2C[C@H](O)[C@@H](CO)O2)c(=O)[nH]1 (some centres undefined) ... inactive
2) CC(=O)O[C@@H]1CC2C(C)(C)C=CC(=O)[C@]2(C)C2CC[C@@]3(C)[C@H](c4ccoc4)OC(=O)C4OC43[C@@]21C (some centres undefined) ... inactive
3) NCCNC(=O)c1ccc(Cl)cc1 ... inactive
4) CC(=O)c1c(O)c(C)c(O)c2c1OC1=CC(=O)C(C(C)=O)C(=O)C12C (centres undefined) ... active
5) C=CC(C1=CC(=O)C(OC)=CC1=O)c1ccccc1 (centres undefined) ... inactive

Request: Dear all, I need the recorded test outcome for `CCN(CC)CCNC(=O)c1cc(S(C)(=O)=O)ccc1OC` , thank you.
Response: inactive

Request: Can you check `CS(=O)(=O)CCCCN=C=S` next?
Response: inactive

Request: Try `Oc1ccc(Cl)c2cccnc12` next.
Response: active

###

experiment: chemical genetic growth profiling, strain panel (AID 1159580);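 note: tested at 20 µM; growth read once vehicle control cultures reached saturation at 30 °C; 1 = growth at the plate median or of vehicle wells; lower values mean less growth of the strain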; conditions: S. cerevisiae deletion strains, growth OD, locus YML032C, strain rad52, active compounds read low
Hit rate of the full screen: of about 5,500 compounds, about 2,000 (36%) were called active. Inconclusive results (about 18%) are left out. This is one part of the list.
OBSERVATION TYPE: normalized growth
Answer with a bare number; do not write a unit.

Illustrative cases are given below, each with its answer.
1) COc1cc2c(c(OC)c1OC)-c1ccc(OC)c(=O)cc1[C@@H](NC(C)=O)CC2 ... 1.02
2) O=C(OC1Cc2c(O)cc(O)cc2OC1c1cc(O)c(O)c(O)c1-c1c(C2Oc3cc(O)cc(O)c3CC2OC(=O)c2cc(O)c(O)c(O)c2)cc(O)c(O)c1O)c1cc(O)c(O)c(O)c1 (stereo unspecified) ... 0.99
3) CSCCC(NC=O)C(=O)NC(C)C(=O)O (stereo unspecified) ... 0.987

Request: Please report the recorded normalized growth for `Oc1ccc(Cl)c2cccnc12` .
Response: 0.0754

Request: Field entry: `Nc1ccc(C(=O)NCC(=O)O)cc1`
Response: 1.01

Request: Similarly, `O=C(O)c1cccnc1Nc1cccc(C(F)(F)F)c1` ?
Response: 0.966

###

The reader will find reported normalized growth values listed item by item below.
assay: chemical genetic growth profiling, strain panel (AID 1159580);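 note: tested at 20 µM; growth read once vehicle control cultures reached saturation at 30 °C; 1 = growth at the plate median or of vehicle wells; lower values mean less growth of the strain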; details: S. cerevisiae deletion strains, growth OD, locus YCL069W, strain vba3, active compounds read low
Out of some 5,500 compounds screened, about 2,000 (36%) were called active. Inconclusive results (about 18%) are left out. Some of the results follow.
Reply: number alone, nothing else.

1) COc1cc2c(c(OC)c1OC)-c1ccc(OC)c(=O)cc1[C@@H](NC(C)=O)CC2 ... 1
2) CCN(CC)CCOc1ccc2c(c1)C(=O)c1cc(OCCN(CC)CC)ccc1-2 ... 0.996
3) OC[C@@H](O)[C@@H](O[C@@H]1O[C@H](CO)[C@@H](O)[C@H](O)[C@H]1O)[C@H](O)[C@@H](O)CO ... 0.972
4) CN1C(CC(=O)c2ccccc2)CCCC1CC(O)c1ccccc1 (centres undefined) ... 0.982

Request: Give the measured normalized growth of CCCC(C)C1(CC)C(=O)N=C(S)NC1=O (centres undefined) .
Response: 1

Request: Repeat with CC(C)NCC(O)c1ccc(O)c(O)c1 (centres undefined)
Response: 1

Request: `Cc1ccc(/C(=C\CN2CCCC2)c2ccccn2)cc1` , same question.
Response: 1.01

Request: Same lookup for `Nc1ccc([As](=O)(O)O)cc1` , please.
Response: 1.01

Request: Here is the next compound: `CNC[C@@H](O)c1ccc(O)c(O)c1`
Response: 1.01

Request: Also, `Nc1ccc(S(=O)(=O)Nc2ccccn2)cc1` please.
Response: 1

Request: Try this compound too: `CCOC(=O)c1oc2c(OC)c(O)cc(O)c2c(=O)c1-c1cc(OC)c(OC)c(OC)c1`
Response: 0.989

Request: `CC(=O)Nc1cc([As](=O)(O)O)ccc1O` ?
Response: 1.01

Request: Same question, Nc1ncnc2c1ncn2C1C[C@H](O)[C@@H](CO)O1 (some centres undefined) this time
Response: 1.01

Request: Now the same for `CC(=O)NCCCS(=O)(=O)O`
Response: 1.01

Request: How about this compound: `C1CCN2C[C@@H]3C[C@H](CN4CCCC[C@@H]34)[C@H]2C1`
Response: 1.01
